study-system: hBRD4 (Homo sapiens, UniProt O60885)
protocol-text: SPR binding to hBRD4
pKd: −log10 of the molar value.
value-type: pKd

[a] COc1cc2c(cc1-c1ccc(C(=O)NCCCCCCCCNC(=O)OC(C)(C)C)cc1)ncc1[nH]c(=O)n([C@H](C)c3ccccn3)c12
[b] COCCOCCOCCOC(=O)c1ccc(-c2cc3ncc4[nH]c(=O)n([C@H](C)c5ccccn5)c4c3cc2OC)cc1
[c] COc1cc2c(N[C@H](C)c3ccccn3)c(C(=O)NCCCCCCN)cnc2cc1-c1c(C)noc1C
Data request: Sort low-to-high on pKd, please. Please respond by ranking the labels in the order requested.
Data returned: b, a, c

---

study-system: TbBdf3 (Trypanosoma brucei brucei, UniProt Q383S2)
protocol-text: ITC binding to TbBdf3
Parameters: species or system T. brucei
pKd: −log10 of the molar value.
value-type: pKd

[A] COc1cc2c(N[C@H](C)c3ccccn3)c(C(=O)NCCCCCCN)cnc2cc1-c1c(C)noc1C [AP-08-188]
[B] COCCOCCOCCOC(=O)c1ccc(-c2cc3ncc4[nH]c(=O)n([C@H](C)c5ccccn5)c4c3cc2OC)cc1 [AP-09-191]
Data request: Could you determine which record has the numerically smaller pKd? Candidates: A and B Please indicate the selected item by its label.
Data returned: A
(A: 4.06, B: 4.66)

---

study-system: TbBdf3 (Trypanosoma brucei brucei)
Sequence (Q383S2 1-221): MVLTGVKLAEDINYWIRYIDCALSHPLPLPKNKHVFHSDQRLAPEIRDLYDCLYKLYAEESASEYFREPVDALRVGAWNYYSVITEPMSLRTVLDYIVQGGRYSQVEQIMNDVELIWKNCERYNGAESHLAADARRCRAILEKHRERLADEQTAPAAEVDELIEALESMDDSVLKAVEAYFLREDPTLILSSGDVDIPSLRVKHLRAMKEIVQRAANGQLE
protocol-text: SPR binding to TbBdf3
Set-up: species or system T. brucei
value-type: Kd (µM)

[I] COc1cc2c(cc1-c1ccc(C(=O)NCCCCCCCCNC(=O)OC(C)(C)C)cc1)ncc1[nH]c(=O)n([C@H](C)c3ccccn3)c12
[II] COc1cc2c(N[C@H](C)c3ccccn3)c(C(=O)NCCCCCCN)cnc2cc1-c1c(C)noc1C
[III] COCCOCCOCCOC(=O)c1ccc(-c2cc3ncc4[nH]c(=O)n([C@H](C)c5ccccn5)c4c3cc2OC)cc1
Data request: Lab note: arrange the 3 molecules above from lowest to highest Kd. Output the labels ranked as instructed.
Data returned: I, II, III
(I: 1.43 µM, II: 30 µM, III: 56 µM)

---

In this section we review reported pEC50 values for a set of compounds.
System: bloodstream T. brucei parasites
protocol-text: Growth inhibition of bloodstream parasites
Format: cell-based
assay-context: Trypanosoma brucei, 48 h, read-out: GEC50 growth inhibition
# pEC50: negative log10 of molar concentration; output just the value

Data request: Requested read-out: pEC50. Entry: COc1cc2c(N[C@H](C)c3ccccn3)c(C(=O)NCCCCCCN)cnc2cc1-c1c(C)noc1C
Data returned: 5.76

Data request: Which pEC50 reading was recorded for the compound COc1cc2c(cc1-c1ccc(C(=O)NCCCCCCCCNC(=O)OC(C)(C)C)cc1)ncc1[nH]c(=O)n([C@H](C)c3ccccn3)c12 ?
Data returned: 5.90
